- Test system: HeLa human cervical tumor cells
- ASSAY METHOD TEXT: Proliferation assay (HeLa cell line)
- Assay type: cell-based
- STUDY CONDITIONS: 96 h, 4 days incubation, crystal violet, read-out: Biological Assay 2: Proliferation assay (HeLa cell line) median IC50
ASSAY METRIC: pIC50
Here pIC50 is given on a logarithmic scale as minus log10 of the concentration in mol/L.

Recorded pIC50, per entry:
MOLECULE	pIC50
COc1cnc(-c2nn(Cc3c(F)cc(OCCO)cc3F)c3ccccc23)nc1Nc1ccncc1 [Example 6-1-1, reference compound]	5.49
COc1cnc(-c2nn(Cc3c(F)cc(OCCO)cc3F)c3ccccc23)nc1Nc1ccnc(F)c1	5.29
COc1cnc(-c2nn(Cc3c(F)cc(OCCO)cc3F)c3ccccc23)nc1Nc1ccnc(C)c1OC	5.85
COc1cnccc1Nc1nc(-c2nn(Cc3c(F)cc(OCCCO)cc3F)c3ccccc23)ncc1OC	6.00
COc1cnc(-c2nn(Cc3c(F)cc(OCCO)cc3F)c3ccccc23)nc1Nc1ccnc(C(F)F)c1	5.04

Request: pIC50, test system HeLa human cervical tumor cells, entry COc1cnc(-c2nn(Cc3c(F)cc(OCCCO)cc3F)c3ccccc23)nc1Nc1ccnc(C)c1 5.59

Request: pIC50, test system HeLa human cervical tumor cells, entry COc1cnccc1Nc1nc(-c2nn(Cc3c(F)cc(OC[C@H](C)CO)cc3F)c3ccccc23)ncc1OC 5.16

Request: pIC50, test system HeLa human cervical tumor cells, entry COc1cnc(-c2nn(Cc3c(F)cc(OCCO)cc3F)c3ccccc23)nc1Nc1ccncc1C 5.51

Request: pIC50, test system HeLa human cervical tumor cells, entry COc1cnccc1Nc1nc(-c2nn(Cc3c(F)cc(OCCO)cc3F)c3ccccc23)ncc1OC 5.77

Request: pIC50, test system HeLa human cervical tumor cells, entry COc1cnc(-c2nn(Cc3c(F)cc(OCCOC(C)=O)cc3F)c3ccccc23)nc1Nc1ccncc1 [Example 6-3-1, reference compound] 5.48
